# measuredOn: AXL (human) (UniProt P30530)
# Sequence (P30530 whole entry, looked up): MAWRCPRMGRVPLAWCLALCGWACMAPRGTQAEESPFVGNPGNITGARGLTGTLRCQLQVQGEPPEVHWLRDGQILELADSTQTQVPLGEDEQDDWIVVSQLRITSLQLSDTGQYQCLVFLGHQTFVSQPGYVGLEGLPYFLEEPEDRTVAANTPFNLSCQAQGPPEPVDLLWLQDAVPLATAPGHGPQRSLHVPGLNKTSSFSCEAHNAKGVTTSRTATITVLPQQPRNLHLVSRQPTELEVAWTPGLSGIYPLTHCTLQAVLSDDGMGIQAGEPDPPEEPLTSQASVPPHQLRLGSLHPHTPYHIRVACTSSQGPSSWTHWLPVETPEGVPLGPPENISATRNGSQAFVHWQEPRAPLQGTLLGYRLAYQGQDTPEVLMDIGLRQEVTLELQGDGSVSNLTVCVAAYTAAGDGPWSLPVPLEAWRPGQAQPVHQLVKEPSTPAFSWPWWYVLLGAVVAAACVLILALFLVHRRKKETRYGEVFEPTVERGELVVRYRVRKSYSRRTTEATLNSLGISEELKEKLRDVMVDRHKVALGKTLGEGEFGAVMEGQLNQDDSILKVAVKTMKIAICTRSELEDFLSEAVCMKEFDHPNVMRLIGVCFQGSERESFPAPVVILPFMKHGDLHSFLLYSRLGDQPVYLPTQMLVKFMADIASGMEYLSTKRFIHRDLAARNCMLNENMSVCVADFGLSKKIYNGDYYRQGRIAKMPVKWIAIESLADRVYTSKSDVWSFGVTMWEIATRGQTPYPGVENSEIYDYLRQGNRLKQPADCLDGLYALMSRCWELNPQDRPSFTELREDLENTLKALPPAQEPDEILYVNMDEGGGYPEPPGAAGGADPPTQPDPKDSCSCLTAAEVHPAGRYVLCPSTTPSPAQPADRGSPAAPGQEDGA
# experimentalDetails: KINOMEscan competition binding
# testParameters: compound 10.0 µM
Mark Condition met only when kinase still bound, per cent of control stays strictly below 80%. Values equal to the cut-off are Condition not met.

Example entries begin here.
N#C/C(=C1/Nc2ccccc2S1)c1ccnc(NCCc2cccnc2)n1: Condition not met
C=CC(=O)Nc1ccc(C(=O)c2sc(Nc3ccc(N4CCN(C)CC4)cc3OC)nc2N)cc1: Condition not met
COc1cc(N2CCC(C(N)=O)CC2)ccc1Nc1nc(N)c(Cl)c(Nc2ccccc2S(=O)(=O)C(C)C)n1: Condition met
CC1=C(C(=O)Nc2cc3cn[nH]c3cc2F)C(c2ccc(C(F)(F)F)cc2)CC(=O)N1 (stereo not drawn): Condition not met
COc1cc(C)c(Sc2cnc(NC(=O)c3ccc(CNC(C)C(C)C)cc3)s2)cc1C(=O)N1CCN(C(C)=O)CC1 (stereo not drawn): Condition met

# next molecule below
Ask: hey, is kinase still bound, per cent of control for O=c1[nH]c2ccccc2n1C1CCN(Cc2ccc(-c3nc4cc5[nH]cnc5cc4nc3-c3ccccc3)cc2)CC1 lower than 80% or not?
Result: Condition met
